- Test system: CEM cells HIV-1 protection, formazan growth assay
- EXPERIMENT: NCI AIDS Antiviral Assay
- CONDITION DETAILS: measured here: growth of uninfected CEM cells
Catalogue of molecules with associated IC50
TEST READOUT: IC50

INSERT INTO measurements (molecule, tested_system, test_readout, result) VALUES
  ('C=C1C(=O)OC2/C=C(\COC(C)=O)CCC(OC(C)=O)C3=CC(OC3=O)C12 (stereo not given)', 'CEM cells HIV-1 protection, formazan growth assay', 'IC50', '7.24 µM'),
  ('CC12CCc3ccccc3C1=NNC(=O)C2 (stereo not given)', 'CEM cells HIV-1 protection, formazan growth assay', 'IC50', '> 170 µM'),
  ('CC(O[Si](c1ccccc1)(c1ccccc1)C(C)(C)C)[C@H](NC(=O)OC(C)(C)C)C(=O)O (stereo not given in full)', 'CEM cells HIV-1 protection, formazan growth assay', 'IC50', '> 40.7 µM'),
  ('CCC(CC)C(=O)NCC(=O)NO', 'CEM cells HIV-1 protection, formazan growth assay', 'IC50', '> 200 µM'),
  ('COC(=O)c1onc(-c2c(OC)cc(OC)cc2OC)c1C(=O)OC', 'CEM cells HIV-1 protection, formazan growth assay', 'IC50', '115 µM'),
  ('CSc1ncnc2c1cnn2CCCCO', 'CEM cells HIV-1 protection, formazan growth assay', 'IC50', '> 200 µM'),
  ('C=C(Br)CNC(=O)CCC(=O)NCC(=C)Br', 'CEM cells HIV-1 protection, formazan growth assay', 'IC50', '> 200 µM'),
  ('COCc1cc2c(cc1/C=C/[N+](=O)[O-])OCO2', 'CEM cells HIV-1 protection, formazan growth assay', 'IC50', '2.95 µM'),
  ('Cc1ccc2c(c1)C(=S)N1CSCC1c1nncn1-2 (stereo not given)', 'CEM cells HIV-1 protection, formazan growth assay', 'IC50', '> 200 µM'),
  ('O=C1C2CN(Cc3ccccc3)CC2C(=O)N1c1ccccc1 (stereo not given)', 'CEM cells HIV-1 protection, formazan growth assay', 'IC50', '> 200 µM'),
  ('O=c1cc2ccc(Cl)cc2n[nH]1', 'CEM cells HIV-1 protection, formazan growth assay', 'IC50', '> 85.1 µM'),
  ('C=C(C)C1CCC2=CC(CC3(C)OC3C3=CC(C(=O)OC)=C(C1)O3)OC2=O (stereo not given)', 'CEM cells HIV-1 protection, formazan growth assay', 'IC50', '> 47.9 µM'),
  ('O=C1c2cccc3cccc(c23)C(=O)N1c1nccs1', 'CEM cells HIV-1 protection, formazan growth assay', 'IC50', '> 50.1 µM'),
  ('Cc1ncc(CO)c(CO)c1OCC(O)CN1CCN(C(=O)c2ccccc2)CC1 (stereo not given)', 'CEM cells HIV-1 protection, formazan growth assay', 'IC50', '> 200 µM'),
  ('NC1C(O)C(O)C(O)C(O)C1O (stereo not given)', 'CEM cells HIV-1 protection, formazan growth assay', 'IC50', '> 7240 µM'),
  ('COc1cc(O)c2c(c1)O[C@H](C)[C@H](C)C2=O', 'CEM cells HIV-1 protection, formazan growth assay', 'IC50', '> 200 µM'),
  ('CCCCN1C(=O)c2cccc3cccc(c23)C1=O', 'CEM cells HIV-1 protection, formazan growth assay', 'IC50', '112 µM'),
  ('O=C1NC(=S)N(c2ccccc2)C1=O', 'CEM cells HIV-1 protection, formazan growth assay', 'IC50', '> 200 µM'),
  ('Cn1c(-c2csc(-c3ccc(Cl)cc3)n2)n[nH]c1=S', 'CEM cells HIV-1 protection, formazan growth assay', 'IC50', '> 200 µM'),
  ('CC1SC(=S)N(c2ccc(Cl)cc2)C1=O (stereo not given)', 'CEM cells HIV-1 protection, formazan growth assay', 'IC50', '67.6 µM'),
  ('Fc1cccc2c1[nH]c1c2ncc2[nH]c3ccccc3c21', 'CEM cells HIV-1 protection, formazan growth assay', 'IC50', '6.92 µM'),
  ('CCCNCC(O)COc1ccc2c3c(c(=O)oc2c1)CCC3 (stereo not given)', 'CEM cells HIV-1 protection, formazan growth assay', 'IC50', '87.1 µM'),
  ('Cc1ccc(S(=O)(=O)N/N=C2\CC3C4CCC3C2C4)cc1 (stereo not given)', 'CEM cells HIV-1 protection, formazan growth assay', 'IC50', '> 200 µM'),
  ('CSc1n[nH]c2n[nH]c(C)c12', 'CEM cells HIV-1 protection, formazan growth assay', 'IC50', '105 µM'),
  ('CC(=O)/C(=C/n1c(=S)sc2ccccc21)C(=O)Nc1ccccc1', 'CEM cells HIV-1 protection, formazan growth assay', 'IC50', '138 µM');
